- System: HS 578T breast
- assay_info: NCI tumour cell line growth inhibition, 48 h
Listing of entries alongside the reported TGI.
Numbers only; they are read as µM.

c1ccc2cc(-c3n(Cc4ccc5ccccc5n4)c4ccccc4[n+]3Cc3ccc4ccccc4n3)ccc2c1
1.7

State recorded TGI with HS 578T breast, entry `O=[N+]([O-])/C(C(Cl)=C(Cl)Cl)=C(/Cl)SCc1ccccc1` , no comment.
9.67

State recorded TGI with HS 578T breast, entry Cc1cccc2c3c(sc12)C(c1ccc(Cl)cc1)C(C#N)=C(N)O3 (configuration not stated) , no comment.
1.48

State recorded TGI with HS 578T breast, entry `CCC(=O)C(CCN1CCC2(CCCc3ccccc32)CC1)(c1ccccc1)c1ccccc1` , no comment.
7.02

###

- Tested on: MOLT-4 leukemia
- assay_info: NCI tumour cell line growth inhibition, 48 h
Listing of entries alongside the reported GI50.

Worked set:
NS(=O)(=O)c1ccc(-c2cc3ccncc3cc2OCc2ccccc2)cc1
> 13600 nM
COc1ccc(NC(=O)C2CCC(CNS(=O)(=O)c3ccccc3)CC2)cc1OC (configuration not stated)
> 100000 nM
COc1cc(/C=C/C(=O)c2cccc(-n3cc(-c4ccc(Cl)cc4)[nH]c3=O)c2)cc(OC)c1OC
5240 nM
CCN(CC)CCCCCCNc1cc(OC)cc2cccnc12
1840 nM
CCC1(O)C(=O)OCc2c1cc1n(c2=O)Cc2cc3c(NC(=O)CN)cccc3nc2-1 (configuration not stated)
43.8 nM
Oc1cccc2ccc(N/N=C/c3cc(CN4CCOCC4)c(O)c4ncccc34)nc12
53 nM

Read the entry `COC(=O)[C@H]1CCCN1C(=O)[C@H]1CCCN1C(=O)[C@@H](Cc1c[nH]c2ccccc12)NC(=S)Nc1cc(C(F)(F)F)cc(C(F)(F)F)c1` and write its reported GI50.
2380 nM

Read the entry `c1ccc2cc(-c3n(Cc4ccc5ccccc5n4)c4ccccc4[n+]3Cc3ccc4ccccc4n3)ccc2c1` and write its reported GI50.
348 nM

Read the entry `O=C(Nc1cccc(-n2cc(-c3ccncc3)c(-c3cc(O)cc(Cl)c3)n2)c1)c1cc(C(F)(F)F)cc(C(F)(F)F)c1` and write its reported GI50.
2380 nM

Read the entry `O=C(/C=C/c1cccc(O)c1)c1cccc(-n2cc(-c3ccccc3)[nH]c2=O)c1` and write its reported GI50.
3380 nM

Read the entry `c1ccc2c(c1)Nc1ccncc1S2` and write its reported GI50.
31100 nM

Read the entry `C[C@]12CC[C@@H]3c4cc(OC(F)F)c(OS(N)(=O)=O)cc4CC[C@H]3[C@@H]1CC[C@@H]2O` and write its reported GI50.
641 nM

Read the entry `N#CCN1CCn2c1nsc2=S` and write its reported GI50.
5100 nM

Read the entry COC1=C(OC)C(=O)C(SC/C=C(\C)CCCC(C)CCCC(C)CCCC(C)C)=CC1=O (configuration not stated) and write its reported GI50.
1410 nM

Read the entry `Oc1c(I)cc(I)c2cccnc12` and write its reported GI50.
7530 nM

###

Listing of entries alongside the reported TGI.
- Test system: SK-MEL-28 melanoma
- assay_info: NCI tumour cell line growth inhibition, 48 h

OCCNC1c2cc(Cl)ccc2-c2c(Cl)cc(Cl)cc21 (configuration not stated)
> 100 µM
Clc1cc(Cl)cc(N=C/C=C/Nc2cc(Cl)cc(Cl)c2)c1
47 µM

Read the entry `Cn1cc(C2=C(c3cccc(OC[C@@H](O)CO)c3)C(=O)NC2=O)c2ccccc21` and write its reported TGI.
> 25 µM

Read the entry `O=C(Nc1cccc(-n2cc(-c3ccncc3)c(-c3cc(O)cc(Cl)c3)n2)c1)c1cc(C(F)(F)F)cc(C(F)(F)F)c1` and write its reported TGI.
85.3 µM

Read the entry `O=[N+]([O-])/C(C(Cl)=C(Cl)Cl)=C(/Cl)SCc1ccccc1` and write its reported TGI.
20.8 µM

###

- Test system: HCT-15 colon
- assay_info: NCI tumour cell line growth inhibition, 48 h
property: TGI

O=c1[nH]nc(Cc2ccccc2)n1C1CCCC1
> 100 µM

// below: TGI requested for another compound
State recorded TGI with HCT-15 colon, entry `Cc1ccc(/C(C#N)=C/c2cccc([N+](=O)[O-])c2)cc1` , no comment.
> 100 µM

###

Listing of entries alongside the reported TGI.
- Tested on: SNB-19 CNS
- assay_info: NCI tumour cell line growth inhibition, 48 h

Worked set:
C=C1CCC2[C@@H](CCC3[C@]2(C)CCC[C@]3(C)C(=O)OC)C1CC=O (some centres not stated)
33.1 µM
O=[N+]([O-])/C(C(Cl)=C(Cl)Cl)=C(/Cl)SCc1ccccc1
43.2 µM

Read the entry CCOC(=O)N1N=C(/C(C)=N/OC)C(C)S1=O (configuration not stated) and write its reported TGI.
> 100 µM

Read the entry `CSC(=S)Nc1cccc(C)n1` and write its reported TGI.
> 100 µM

Read the entry `COc1cc2c(cc1OC)-c1ncc3c(OC)c(OC)c(OC)cc3c1C2` and write its reported TGI.
50 µM

###

- Tested on: OVCAR-5 ovarian
- assay_info: NCI tumour cell line growth inhibition, 48 h
Kind request: treat 10 µM as inclusive, so TGI at 10 µM or higher is T, anything lower is F.

Consider the following illustrative entries.
COc1ncnc(NS(=O)(=O)c2ccc(N=C3C(=O)N(CN4CCN(c5c(F)cc6c(=O)c(C(=O)O)cn(C7CC7)c6c5OC)CC4C)c4ccc(Br)cc43)cc2)c1OC (configuration not stated)
T
Cc1ccc2nc(N/N=C/c3sccc3C)cc(C)c2c1
T
COc1ccc(/C=C2\CCC(C)(CN(C)C)C2=O)cc1OC (configuration not stated)
T
COc1c(=O)cc2cc[nH]c3ccn(C)c1c23
T
C#CCNC(=O)[C@H](CC)[C@H]1CC[C@H](C)[C@H]([C@@H](C)[C@H](O)[C@H](C)C(=O)[C@H](CC)C2O[C@]3(C=CC(=O)[C@]4(CC[C@@](C)([C@H]5CC[C@](O)(CC)[C@H](C)O5)O4)O3)[C@H](C)C[C@@H]2C)O1 (some centres not stated)
F
Cc1cc(C)nc(NS(=O)(=O)c2ccc(NC(=O)c3cccc4c(Nc5ccc(S(=O)(=O)Nc6cc(C)on6)cc5)c5ccccc5nc34)cc2)n1
T
Cc1ccc(-c2nc([P+](c3ccccc3)(c3ccccc3)c3ccccc3)c(S(=O)(=O)c3ccc(C)cc3)o2)cc1
F
CC(=O)NC1C(OCc2ccccc2)OC(CO)C(O)C1OC(C)C(=O)NC(C)C(=O)NC(CCC(=O)NCCCCNc1c2ccccc2nc2cccc([N+](=O)[O-])c12)C(N)=O (configuration not stated)
F
CCOC(=O)c1c(C)n(-c2ccc(Cl)cc2)c2c1cc(O)c1[nH]c3c(c12)CCCC3
T
O=[N+]([O-])/C(C(Cl)=C(Cl)Cl)=C(/Cl)SCc1ccccc1
T

Is TGI for `COc1ccc(-c2cc(C(=O)Nc3ccc(C)c(C)c3)nc(NC#N)n2)cc1` at or above 10 µM?
T

Is TGI for `O=C(CCCCCCN1CC(=O)N2[C@@H](c3ccc(Cl)c(Cl)c3)c3[nH]c4ccccc4c3C[C@H]2C1=O)NO` at or above 10 µM?
T

Is TGI for `Oc1ccc(C(c2ccc(O)cc2)c2ccc(Br)cn2)cc1` at or above 10 µM?
T

Is TGI for `Cc1cc(C)nc(SC2=C(Nc3cc(Cl)ccc3O)C(=O)N(Cc3ccccc3)C2=O)n1` at or above 10 µM?
T

Is TGI for `Nc1nc(Nc2ccccc2SSc2ccccc2Nc2nc(N)nc(C(Cl)(Cl)Cl)n2)nc(C(Cl)(Cl)Cl)n1` at or above 10 µM?
T

Is TGI for Nc1ccc2c(c1)nc1n2C(c2c(F)cccc2F)SC1 (configuration not stated) at or above 10 µM?
T

Is TGI for `COc1ccc2c(c1)c1c(n2CCN(C)C)-c2ccccc2CC1` at or above 10 µM?
T

###

- System: HCT-15 colon
- assay_info: NCI tumour cell line growth inhibition, 48 h; in the data active means GI50 below about 0.43 µM; inactive means the rest
Assign a class; possible classes are active, inactive

Consider the following illustrative entries.
Oc1ccc(C(c2ccc(O)cc2)c2ccc(Br)cn2)cc1
active
O=C(Nc1cccc(-n2cc(-c3ccncc3)c(-c3cc(O)cc(Cl)c3)n2)c1)c1cc(C(F)(F)F)cc(C(F)(F)F)c1
inactive
C/C(=N/N=C(\[O-])c1ccncc1)C(F)(F)F.C/C(=N\N=C(/[O-])c1ccncc1)C(F)(F)F.[Ni+2]
inactive
CN(CCNCc1ccccn1)CCNCc1ccccn1
inactive

Check the results log: what was the call for Cc1cccc2c3c(sc12)C(c1ccc(Cl)cc1)C(C#N)=C(N)O3 (stereo unspecified) ?
active

Check the results log: what was the call for `CCCCCCNC(=O)Oc1ccc(/C(=C(\C)c2ccc(Cl)cc2)c2ccc(OCCN3CCCCC3)cc2)cc1` ?
inactive

Check the results log: what was the call for `Cc1cc(C)nc(SC2=C(Nc3cc(Cl)ccc3O)C(=O)N(Cc3ccccc3)C2=O)n1` ?
inactive

Check the results log: what was the call for `CC(C)(Br)C(=O)C(Br)Br` ?
inactive

Check the results log: what was the call for COc1ncnc(NS(=O)(=O)c2ccc(N=C3C(=O)N(CN4CCN(c5c(F)cc6c(=O)c(C(=O)O)cn(C7CC7)c6c5OC)CC4C)c4ccc(Br)cc43)cc2)c1OC (stereo unspecified) ?
inactive

Check the results log: what was the call for `CCN(CC)CCCCCCNc1cc(OC)cc2cccnc12` ?
inactive

Check the results log: what was the call for `Cc1cc(N(CCCNc2ccnc3cc(Cl)ccc23)Cc2ccco2)nc(N2CCN(C)CC2)n1` ?
inactive

Check the results log: what was the call for `CSc1nc2sc3c(c2c(=O)n1-c1ccc(C(C)C)cc1)CCC(=O)C3` ?
inactive

Check the results log: what was the call for `O=C(/C=C/c1cccc(O)c1)c1cccc(-n2cc(-c3ccccc3)[nH]c2=O)c1` ?
inactive

Check the results log: what was the call for `Cc1ccc(-c2nc([P+](c3ccccc3)(c3ccccc3)c3ccccc3)c(S(=O)(=O)c3ccc(C)cc3)o2)cc1` ?
inactive

Check the results log: what was the call for `NS(=O)(=O)c1ccc(-c2cc3ccncc3cc2OCc2ccccc2)cc1` ?
inactive

Check the results log: what was the call for `COc1ccc(N(CC(=O)NCCC[Te]c2ccccc2)C(=O)CNC(=O)OC(C)(C)C)cc1` ?
inactive

Check the results log: what was the call for `COC(=O)[C@H]1CCCN1C(=O)[C@H]1CCCN1C(=O)[C@@H](Cc1c[nH]c2ccccc12)NC(=S)Nc1cc(C(F)(F)F)cc(C(F)(F)F)c1` ?
inactive

Check the results log: what was the call for `Cn1cc(C2=C(c3cccc(OC[C@@H](O)CO)c3)C(=O)NC2=O)c2ccccc21` ?
inactive

Check the results log: what was the call for CC1OC(OC2C(O)CC(OC3C(O)CC(OC4CCC5(C)C(CCC6C5CC(O)C5(C)C(C7=CC(=O)OC7)CCC65O)C4)OC3C)OC2C)CC(O)C1O (stereo unspecified) ?
active

Check the results log: what was the call for `COc1cc(/C=C/C(=O)c2cccc(-n3cc(-c4ccc(Cl)cc4)[nH]c3=O)c2)cc(OC)c1OC` ?
inactive

Check the results log: what was the call for `COc1ccc(-c2nc(/C=C3\SC(=NCc4ccccc4)NC3=O)c3ccccn23)cc1` ?
inactive
